Test: Antioxidant activity assessed as trolox equivalent of AAPH radical scavenging activity at 1 to 10 uM preincubated for 15 mins followed by AAPH challenge measured every min for 80 mins by ORAC-FL assay
Mark condition not met for Activity values under 2 equiv, and condition met for everything at or above.

sample.smiles	class
COc1cc(CNCCCN2CCN(C(c3ccccc3)c3ccccc3)CC2)cc(OC)c1OC	condition met
COc1ccc(CNCCN2CCC(Cc3ccccc3)CC2)cc1OC	condition not met
COc1ccc(CNCCCCN2CCN(Cc3ccccc3)CC2)cc1OC	condition not met
COc1cc(CNCCCN2CCN(C(c3ccccc3)c3ccccc3)CC2)ccc1O	condition met
COc1cc(CNCCN2CCN(C(c3ccccc3)c3ccccc3)CC2)cc(OC)c1OC	condition met
COc1cc(CNCCN2CCN(Cc3ccccc3)CC2)ccc1O	condition not met
COc1ccc(CNCCCCN2CCC(Cc3ccccc3)CC2)cc1OC	condition not met
c1ccc(CC2CCN(CCCNCc3cccnc3)CC2)cc1	condition not met
COc1ccc(CNCCCN2CCN(C(c3ccccc3)c3ccccc3)CC2)cc1OC	condition met
COc1cc(CNCCCN2CCC(Cc3ccccc3)CC2)cc(OC)c1OC	condition not met
COc1cc(CNCCN2CCC(Cc3ccccc3)CC2)cc(OC)c1OC	condition not met
c1ccc(CC2CCN(CCCCNCc3cccnc3)CC2)cc1	condition not met
COc1cc(CNCCCCN2CCN(Cc3ccccc3)CC2)ccc1O	condition not met
c1ccc(CN2CCN(CCNCc3cccnc3)CC2)cc1	condition not met
COc1cc(CNCCCN2CCC(Cc3ccccc3)CC2)ccc1O	condition met
COc1cc(CNCCCN2CCN(Cc3ccccc3)CC2)cc(OC)c1OC	condition not met
COc1cc(CNCCCCN2CCN(Cc3ccccc3)CC2)cc(OC)c1OC	condition not met
COc1cc(CNCCN2CCN(C(c3ccccc3)c3ccccc3)CC2)ccc1O	condition met
COc1ccc(CNCCCN2CCC(Cc3ccccc3)CC2)cc1OC	condition not met
COc1cc(CNCCN2CCC(Cc3ccccc3)CC2)ccc1O	condition met
COc1ccc(CNCCN2CCN(Cc3ccccc3)CC2)cc1OC	condition not met
COc1ccc(CNCCCCN2CCN(C(c3ccccc3)c3ccccc3)CC2)cc1OC	condition not met
